# Test system: SK-MEL-5
# assay.name: NCI tumour cell line growth inhibition, 48 h
Activity calls are given as the source filed them. Rule as the data show it: active = GI50 up to about 1.1 µM and inactive = higher.
Outcome codes: TRUE for active, FALSE for inactive

{"molecule": "CC(=O)NC1C(OCc2ccccc2)OC(CO)C(O)C1OC(C)C(=O)N[C@@H](C)C(=O)N[C@H](CCC(=O)NCCNCCNc1c2ccccc2nc2cccc([N+](=O)[O-])c12)C(N)=O (some centres undefined)", "class": "TRUE"}
{"molecule": "CC(C)(C)OC(=O)n1cc(C2CNC(=O)C23CCC(=O)N3Cc2ccccc2)c2ccccc21 (centres undefined)", "class": "FALSE"}
{"molecule": "CO/N=C(\\C(=O)Nc1cncs1)c1csc(N)n1", "class": "FALSE"}
{"molecule": "C=CCc1oc(C)nc1CCCC", "class": "FALSE"}

* * *

# Test system: HL-60
# assay.name: NCI tumour cell line growth inhibition, 48 h
Calls of active or inactive are those of the source. Cut-off read from the data, not from the text of the source: active = GI50 up to about 1.1 µM and inactive = higher.
Outcomes: True (active), False (inactive)

{"molecule": "COc1nc2ncc([C@@H](OC(C)=O)[C@@H](COC(C)=O)OC(C)=O)nc2c(=O)n1C", "class": "False"}
{"molecule": "Cc1n[nH]c(=O)n1-c1cccnc1", "class": "False"}
{"molecule": "S=C(N/N=C/c1ccccn1)N1CC2CCC(CC2)C1", "class": "True"}
{"molecule": "N#CC(C#N)=C1/C(=C/C=C/C=C/C=C/c2ccc(N3CCCCC3)s2)S(=O)(=O)c2ccccc21", "class": "False"}
{"molecule": "O=S(=O)(O)c1ccc(/N=N/c2ccc(/N=N/c3c(O)c(S(=O)(=O)O)cc4cc(S(=O)(=O)O)ccc34)cc2)cc1", "class": "False"}
{"molecule": "Cc1ccc(-c2nc(N/N=C/C=C/c3ccccc3)c3ccccc3n2)cc1", "class": "False"}
{"molecule": "O=C1OCC2=Nc3cccc4cccc(c34)N12", "class": "False"}
{"molecule": "CCN(CC)c1nc(NC2CCCCC2)c2nc(N(CC)CC)nc(NC3CCCCC3)c2n1", "class": "False"}
{"molecule": "C=CCn1c(=O)n(CC=C)c(=O)n(CC=C)c1=O", "class": "False"}
{"molecule": "O=C1/C(=C/c2ccccc2)CN(C(=O)CCN2CCCC2)C/C1=C\\c1ccccc1", "class": "True"}
{"molecule": "COc1ccc2c(c1)[n+]([O-])c(/C(C)=N/NC(=O)CC#N)c[n+]2[O-]", "class": "False"}
{"molecule": "COC(=O)c1nn(C(=N)c2ccc(Cl)cc2)c2c1CCCCC2", "class": "False"}
{"molecule": "Cc1cn(C2C=CC(COP(=O)(OCc3ccc([N+](=O)[O-])o3)N(C)CCCCCl)O2)c(=O)[nH]c1=O (configuration not stated)", "class": "False"}
{"molecule": "Cc1cc2c(O)c(c1)CN(Cc1ccccc1)Cc1cc(C)cc(c1O)CN(Cc1ccccc1)Cc1cc(C)cc(c1O)CN(Cc1ccccc1)C2", "class": "False"}
{"molecule": "C=C1C(=O)OC2/C=C(\\C)C(OC(C)=O)C3OC3C(C)(O)CC(OC(=O)/C(C)=C/C)C12 (configuration not stated)", "class": "False"}
{"molecule": "CC(C)(C)OC(=O)N/C(C=O)=C\\C1CCCCC1", "class": "False"}
{"molecule": "Cc1cc2c(cn1)C(=O)OCC2", "class": "False"}
{"molecule": "COc1ccc(N2C(N)=C(C#N)C(C#N)(C#N)C2c2cccc([N+](=O)[O-])c2)cc1 (configuration not stated)", "class": "False"}
{"molecule": "NC(=O)c1nc[nH]c1/N=N/SCC(N)C(=O)O (configuration not stated)", "class": "False"}
{"molecule": "O=C1NC(=O)/C(=C\\c2ccncc2)N1", "class": "False"}
{"molecule": "CC(C)(Cc1ccccc1)N1C(=O)N1C(C)(C)Cc1ccccc1", "class": "False"}
{"molecule": "C=C(N=[N+]=[N-])c1cn(C2CC(O)C(CO)O2)c(=O)[nH]c1=O (configuration not stated)", "class": "False"}
{"molecule": "C#CCC1(C(=O)OCC)C(=O)c2ccccc2N(C)C1=O (configuration not stated)", "class": "False"}
{"molecule": "C[C@@H]1C[C@H]2CC[C@H](O2)[C@H](C)C(=O)O[C@@H](C)C[C@@H]2CC[C@@H](O2)[C@@H](C)C(=O)O[C@H](C)C[C@H]2CC[C@H](O2)[C@H](C)C(=O)O[C@@H](C)C[C@@H]2CC[C@@H](O2)[C@@H](C)C(=O)O1", "class": "True"}
{"molecule": "CCOC(=O)C(=O)NCCCN1CCOCC1", "class": "False"}
{"molecule": "O=C(CCCn1ccnc1[N+](=O)[O-])NCCn1cnc([N+](=O)[O-])n1", "class": "False"}
{"molecule": "COc1ccc(SCc2cc(OCc3ccccc3)c(OCc3ccccc3)c(OCc3ccccc3)c2)cc1", "class": "False"}

Ref: ChEMBL document CHEMBL1201862
